Entry source: paper PMC7004140

- Test system: HepaRG cells
- Assay procedure: WST-1 metabolic activity (cytotoxicity) in HepaRG cells
- Type: cell-based, human
- Condition parameters: 250 μM, 4 hr
Listed below: metabolic activity values for each entry.
Give the value, in units of %, as a plain number.

Completed entries (count: 3):
| Molecule smiles | metabolic activity, % |
| --- | --- |
| C=C(C)[C@@H]1C[C@@]2(C)C(=CC1=O)CC[C@@H](OC(=O)/C(C)=C\C)[C@@H]2C | 37.7 |
| C=C(C)[C@@H]1C[C@@]2(C)C(=CC1=O)CC[C@@H](O)[C@@H]2C | 68.6 |
| C/C=C(/C)C(=O)O[C@@H]1CCC2=CC(=O)C(=C(C)C)C[C@]2(C)[C@H]1C | 73 |

# context switch: different compound, same metabolic activity
Lookup: Looking for the measured metabolic activity of C=C(C)[C@H]1C[C@@]2(C)C(=CC1=O)CC[C@@H](OC(=O)/C(C)=C\C)[C@@H]2C , can you help?
Found: 28.9
